Origin of measurements: paper PMC7774088

- study_target: Stp1 (Staphylococcus aureus, UniProt A0A0H2XF73, P152A)
- method_description: biochemical
property_label: Kd (µM)
Answer format: numeric, µM implied, no suffix.

Kd for O=C(O[C@@H]1O[C@@H]2COC(=O)c3cc(O)c(O)c(O)c3-c3c(cc(O)c(O)c3O)C(=O)O[C@H]([C@H]1O)[C@@H]2O)c1cc(O)c(O)c(O)c1 ? 7.25

---

- study_target: Stp1 (Staphylococcus aureus, UniProt A0A0H2XF73, F179A)
- method_description: biochemical
property_label: pKd
Units for pKd: none; it is -log10 of a concentration expressed in mol/L.

pKd for O=C(O[C@@H]1O[C@@H]2COC(=O)c3cc(O)c(O)c(O)c3-c3c(cc(O)c(O)c3O)C(=O)O[C@H]([C@H]1O)[C@@H]2O)c1cc(O)c(O)c(O)c1 ? 5.59

---

- study_target: Stp1 (Staphylococcus aureus, UniProt A0A0H2XF73, I164A)
- method_description: biochemical
property_label: Kd (µM)
Answer format: numeric, µM implied, no suffix.

Kd for O=C(O[C@@H]1O[C@@H]2COC(=O)c3cc(O)c(O)c(O)c3-c3c(cc(O)c(O)c3O)C(=O)O[C@H]([C@H]1O)[C@@H]2O)c1cc(O)c(O)c(O)c1 ? 8.85
